Test system: P388 leukemia ip, CD2F1 mice, survival T/C
protocol-notes: NCI In Vivo Anticancer Drug Screen. Data for tumor model P388 Leukemia (intraperitoneal) in CD2F1 (CDF1) mice
test-parameters: endpoint: median survival time; dose: 6.25 mg/kg/injection; schedule: Q01DX005 (ip); vehicle: saline with Tween-80; higher = longer survival
Toxic doses and inconclusive results are not listed.
readout-name: T/C

Worked cases, answers included:
Req: Request the reported T/C associated with CCn1c2ccccc2c2cc(/C=N/N=C/c3ccc4c(c3)c3ccccc3n4CC)ccc21
Resp: 90 % of control

Req: Which T/C value belongs to O=c1oc2ccccc2n1Cc1ccc(Cl)cc1 ?
Resp: 102 % of control

Req: What value of T/C has been reported for the following molecule? CC(=O)Nc1nnc(-c2coc3ccc(C)cc3c2=O)s1
Resp: 99 % of control

Moving on to another molecule below.
Req: Given the molecule N=C(N)N=Nc1cc(O)c(NN=C(N)N)cc1O , what is its reported T/C?
Resp: 102 % of control

====

The following compounds are listed with their measured T/C values.
System: P388 leukemia ip, CD2F1 mice, survival T/C
protocol-notes: NCI In Vivo Anticancer Drug Screen. Data for tumor model P388 Leukemia (intraperitoneal) in CD2F1 (CDF1) mice
test-parameters: endpoint: median survival time; dose: 240.0 mg/kg/injection; schedule: Q01DX005 (ip); vehicle: saline; higher = longer survival
Toxic doses and inconclusive results are not listed.

Guide cases for T/C, answers given:
Req: Which T/C value belongs to COC(=O)C1(C(C)C(=O)c2ccc(Cl)cc2)NC(=S)NC(=O)C1C#N (stereo unspecified) ?
Resp: 108 % of control

Req: Endpoint output: T/C of O=CC(O)C(O)C(O)C(O)CO (stereo unspecified) . Value?
Resp: 102 % of control

Req: Item under review: COC(OC)C1CC=CCCC1C(=O)O (stereo unspecified) . Reported T/C?
Resp: 96 % of control

Please look at the following compound next.
Req: GET /values?readout=T/C&item= CCOC(=O)N1C=CC(CC(=O)N(CC)CC)C=C1 (tested in a mixture with another compound)
Resp: 108 % of control

====

Tested on: P388 leukemia ip, CD2F1 mice, survival T/C
protocol-notes: NCI In Vivo Anticancer Drug Screen. Data for tumor model P388 Leukemia (intraperitoneal) in CD2F1 (CDF1) mice
test-parameters: endpoint: median survival time; dose: 50.0 mg/kg/injection; schedule: Q01DX005 (ip); vehicle: saline with Tween-80; higher = longer survival
Toxic doses and inconclusive results are not listed.
readout-name: T/C

Req: Need T/C, item C=C(C#N)C1OC2OC(C)(C)OC2C1OC (centres undefined)
Resp: 107 % of control

Req: Return reported T/C; argument: C[N+](C)(C)CCNP(=O)(Oc1ccccc1)c1ccccc1 (centres undefined)
Resp: 103 % of control

====

Tested on: P388 leukemia ip, CD2F1 mice, survival T/C
protocol-notes: NCI In Vivo Anticancer Drug Screen. Data for tumor model P388 Leukemia (intraperitoneal) in CD2F1 (CDF1) mice
test-parameters: endpoint: median survival time; dose: 120.0 mg/kg/injection; schedule: Q01DX005 (ip); vehicle: saline with Tween-80; higher = longer survival
Toxic doses and inconclusive results are not listed.
Form field: T/C (one value per entry).

Req: Requested field: T/C. Item: CNC(=O)N1CCOC1c1ccc(NC(=O)OC)cc1 (configuration not stated)
Resp: 90 % of control

Req: Given CCOc1c(-c2ccccc2)c(=O)n2c3ccccc3n(CC)c2c1C#N , state its recorded T/C.
Resp: 88 % of control

Req: Query (molecule): COC(=O)C(=O)c1c(C2CC2)[nH]c2[nH]n(-c3ccccc3)c(=O)c2c1=O ; field requested: T/C
Resp: 91 % of control

Req: I would be grateful if you could share the reported T/C for CCC(c1ccc(C(C)=O)c(O)c1)C(CC)c1ccc(C(C)=O)c(O)c1 (configuration not stated) .
Resp: 90 % of control

Req: What value of measured T/C is listed for COC(=O)Nc1nc2ccc(C3c4c(n[nH]c4C)CC(C)(O)C3C(C)=O)cc2[nH]1 (configuration not stated) ?
Resp: 101 % of control

New cases:
Req: Query (molecule): COc1cc(C2C3=C(CC(C)(C)CC3=O)Oc3cc4c(cc32)OCO4)cc(OC)c1OC (configuration not stated) ; field requested: T/C
Resp: 98 % of control

Req: I would be grateful if you could share the reported T/C for C#CCSc1n[nH]c(=O)n1C1CCCCC1 .
Resp: 106 % of control

Req: Query: T/C; subject: CC(=O)CCS(=O)Cc1ccccc1 (configuration not stated)
Resp: 98 % of control

Req: Suppose we examine the molecule COC(=O)C1C2C=CC(C1C(=O)OC)C1C(C(=O)NN)C(C(=O)NN)C21 (configuration not stated) ; what T/C value has been reported?
Resp: 97 % of control

Req: // T/C lookup, key: O=C(Nc1nn[nH]n1)c1nc(-c2ccccc2)cc(=O)[nH]1
Resp: 101 % of control

Req: Report T/C for CC(C(/C=N/NC(N)=S)=N/NC(N)=S)N1C(=O)c2ccccc2C1=O (configuration not stated) please.
Resp: 94 % of control

Req: Data request, read-out T/C, for O=C(O)c1c(Br)c(Br)c(Br)c(Br)c1-c1c2ccc(=O)cc-2oc2cc(O)ccc12
Resp: 105 % of control

Req: Which measured T/C value corresponds to CCN(CC)C(=O)Oc1cc(C(=O)N(CC)CC)c(OC(=O)N(CC)CC)cc1C(=O)N(CC)CC ?
Resp: 92 % of control

====

Tested on: P388 leukemia ip, CD2F1 mice, survival T/C
protocol-notes: NCI In Vivo Anticancer Drug Screen. Data for tumor model P388 Leukemia (intraperitoneal) in CD2F1 (CDF1) mice
test-parameters: endpoint: median survival time; dose: 12.5 mg/kg/injection; schedule: Q01DX009 (ip); vehicle: Klucel (hydroxypropylcellulose) (HPC); higher = longer survival
Inconclusive results and toxic doses are left out.
This listing pairs compounds with measured T/C.

Req: Hi! What's the reported T/C for ClC1=C(Cl)N(C2=NCCC2)CC1 on P388 leukemia ip, CD2F1 mice, survival T/C?
Resp: 99 % of control

Req: Look up T/C with P388 leukemia ip, CD2F1 mice, survival T/C for this compound: Nc1nc(-c2ccccc2N=NN2CCCCC2)nc2ccccc12
Resp: 111 % of control

Req: Which measured T/C belongs to CC(=O)O.CC(=O)O.[S-]CCN1CCOCC1.[Zn+2] , tested on P388 leukemia ip, CD2F1 mice, survival T/C?
Resp: 100 % of control

Req: Tell me reported T/C for C=CCNSc1ccccc1 , tested with P388 leukemia ip, CD2F1 mice, survival T/C.
Resp: 112 % of control

Req: # get_value(readout= T/C, system= P388 leukemia ip, CD2F1 mice, survival T/C) for COc1cc2oc(-c3ccc(O)cc3O)c(CC=C(C)C)c(=O)c2c(O)c1/C=C/C(C)C
Resp: 98 % of control

***
Req: Recorded T/C for O=[N+]([O-])c1ccc(Cl)nc1Sc1ncccn1 with P388 leukemia ip, CD2F1 mice, survival T/C, please?
Resp: 91 % of control

Req: // map CCCCCCCCCSc1nc2ccc(N=Cc3ccccc3O)cc2s1 to recorded T/C (system: P388 leukemia ip, CD2F1 mice, survival T/C)
Resp: 100 % of control

Req: P388 leukemia ip, CD2F1 mice, survival T/C / T/C / c1cc2cc3c(cc2cc1CC1NCCc2cc4c(cc21)OCO4)OCO3 (configuration not stated) : value?
Resp: 100 % of control

Req: State its T/C on P388 leukemia ip, CD2F1 mice, survival T/C: C1=CCC23CCCCC2(C1)CN(/N=N/N1CC24CC=CCC2(CCCC4)C1)C3 (configuration not stated)
Resp: 86 % of control

Req: Notebook: pull reported T/C for P388 leukemia ip, CD2F1 mice, survival T/C, entry O=c1oc(-c2cccc([N+](=O)[O-])c2)ns1
Resp: 97 % of control

Req: Form field: T/C recorded for CCCCCCCCCCCCCCCCCCOCC(O)CN(CCO)CCO (configuration not stated) with P388 leukemia ip, CD2F1 mice, survival T/C (enter value)
Resp: 91 % of control

Req: So what T/C did O=C(NC1CCCCC1)OCc1c(COC(=O)NC2CCCCC2)c(-c2ccc(Cl)c(Cl)c2)n2c1CCC2 get with P388 leukemia ip, CD2F1 mice, survival T/C?
Resp: 119 % of control

====

Tested on: P388 leukemia ip, CD2F1 mice, survival T/C
protocol-notes: NCI In Vivo Anticancer Drug Screen. Data for tumor model P388 Leukemia (intraperitoneal) in CD2F1 (CDF1) mice
test-parameters: endpoint: median survival time; dose: 100.0 mg/kg/injection; schedule: Q01DX009 (ip); vehicle: suspension in saline; higher = longer survival
Inconclusive results and toxic doses are left out.
Measured T/C, listed per entry for reference.

Req: Query the reported T/C for P388 leukemia ip, CD2F1 mice, survival T/C; item: CC(C)SC(=S)Nc1cccc(F)c1
Resp: 109 % of control

Req: Give P388 leukemia ip, CD2F1 mice, survival T/C T/C for CC(C)(C#CC(C)(C)OC(=O)Nc1ccccc1)OC(=O)Nc1ccccc1
Resp: 95 % of control

Req: Item: [Cl][Sn]1([c]2ccccc2)[O]CCNCC[O]1 Test system: P388 leukemia ip, CD2F1 mice, survival T/C Read-out: T/C Value: ?
Resp: 109 % of control

More entries:
Req: API: value(readout= T/C, system= P388 leukemia ip, CD2F1 mice, survival T/C, query= Cc1ccc(NCCNCCO)c2c1C(=O)c1ccccc1C2=O )
Resp: 122 % of control

Req: Param readout = T/C; param system = P388 leukemia ip, CD2F1 mice, survival T/C; param query = Cc1c/c(=N\O)c2c(=O)ccoc2n1O ; response: value
Resp: 98 % of control
